molecular target: Recombinant Rhinovirus 3C protease (RVP) serotype 2 (Human rhinovirus 2, UniProt P04936); construct: Recombinant Rhinovirus 3C proteases from serotypes 14, 16, 2 or 89; made in house; experiment: Inhibition of Rhinovirus Protease (fluorescence resonance energy transfer assay), serotype 2; assay type: biochemical, human rhinovirus (HRV); details: pH 7.6, progress curves in enzyme start experiments, read-out: kobs/I
Sequence (P04936 1508-1690): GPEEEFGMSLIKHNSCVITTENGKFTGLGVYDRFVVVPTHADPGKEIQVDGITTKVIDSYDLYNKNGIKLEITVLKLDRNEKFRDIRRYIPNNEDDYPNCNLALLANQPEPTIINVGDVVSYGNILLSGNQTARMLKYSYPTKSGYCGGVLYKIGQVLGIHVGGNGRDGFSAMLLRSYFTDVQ
Assay endpoint: kinact/KI (M⁻¹ s⁻¹)
Give bare numbers, in M⁻¹ s⁻¹.

Solved entries (count: 5):
CCOC(=O)C=CC(CCC(N)=O)NC(=O)C(Cc1ccccc1)NC(=O)C(CCc1ccccc1)NC(=O)OCc1ccccc1 (stereo not drawn) [Compound 148]    8300
CCOC(=O)/C=C/[C@H](CCC(N)=O)NC(=O)[C@H](Cc1ccccc1)NC(=O)[C@H](CSc1ccccc1)NC(=O)OCc1ccccc1 [Compound 153]    13400
CCOC(=O)/C=C/[C@H](CCC(N)=O)NC(=O)[C@H](Cc1ccccc1)NC(=O)[C@H](CCC(=O)O)NC(=O)OCc1ccccc1 [Compound 154]    5400
CCOC(=O)/C=C/[C@H](CCC(N)=O)NC(=O)[C@H](Cc1ccccc1)NC(=O)[C@H](CC(=O)O)NC(=O)OCc1ccccc1 [Compound 159]    2500
CCOC(=O)/C=C/[C@H](CCC(N)=O)NC(=O)[C@H](Cc1ccccc1)NC(=O)[C@H](CC(C)C)NC(=O)SCc1ccccc1 [Compound 106]    28400

--- query ---
Task item: // kinact/KI lookup, key: CCOC(=O)/C=C/[C@H](CCC(N)=O)NC(=O)[C@H](Cc1ccccc1)NC(=O)[C@H](CC(C)C)NC(=O)SCC [Compound 120]
Reply: 8900

###

system: HI-HeLa cells; test: Cytotoxicity in mock-infected HI-HeLa cells (antirhinoviral assay, XTT); assay type: cell-based
Assay endpoint: CC50

Solved entries (count: 5):
CC(C)C[C@H](NC(=O)OCc1ccccc1)C(=O)N[C@@H](Cc1ccccc1)C(=O)N[C@H](/C=C/C(=O)N1CCOC1=O)CCC(N)=O    > 100 µM
CC(C)C[C@H](NC(=O)OCc1ccccc1)C(=O)N[C@@H](Cc1ccccc1)C(=O)N[C@H](/C=C/C(=O)n1cccc1)CCC(N)=O    6.3 µM
CCOC(=O)/C=C/[C@H](CCC(N)=O)NC(=O)[C@H](Cc1ccc(F)cc1)NC(=O)[C@@H](NC(=O)SC1CCCC1)C(C)(C)Sc1ccc([N+](=O)[O-])cc1    > 100 µM
CCOC(=O)C=CC(CCC(N)=O)NC(=O)C(Cc1ccccc1)NC(=O)C(NC(=O)SC1CCCC1)C(C)(C)[S+](C)[O-] (mixture of isomers)    > 100 µM
CCOC(=O)/C=C/[C@H](CCC(N)=O)NC(=O)[C@@H](NC(=O)[C@H](CC(C)C)NC(=O)OCc1ccccc1)C(C)O (stereo partly drawn)    > 320 µM

Task item: Provide value of CC50 for this record tested with HI-HeLa cells: CC(C)C[C@H](NC(=O)OCc1ccccc1)C(=O)N[C@@H](Cc1ccccc1)C(=O)NC(/C=C/C#N)CCC(N)=O (mixture of isomers)
Reply: 500 µM

###

Target: Recombinant Rhinovirus 3C protease (RVP) serotype 16 (Human rhinovirus 16)
Construct: Recombinant Rhinovirus 3C proteases from serotypes 14, 16, 2 or 89
Sequence (Q82122 1511-1693): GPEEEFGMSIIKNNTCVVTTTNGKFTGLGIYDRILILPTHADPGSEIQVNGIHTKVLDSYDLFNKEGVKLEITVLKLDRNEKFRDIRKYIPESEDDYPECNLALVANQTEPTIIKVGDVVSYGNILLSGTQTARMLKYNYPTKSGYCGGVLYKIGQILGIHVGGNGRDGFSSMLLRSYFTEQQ
Assay: Inhibition of Rhinovirus Protease (fluorescence resonance energy transfer assay), serotype 16
Experimental: Stock solution (50 mM, in DMSO) of various compounds were prepared; dilutions were in the same solvent. […] RVP activity is measured in the fluorescence resonance energy transfer assay. […] In the uncleaved peptide, the EDANS fluorescence was quenched by the proximal DABCYL moeity. When the peptide was cleaved, the quenching was relieved, and activity was measured as an increase in fluorescence signal. […]
Assay endpoint: pKi
Numbers only, as −log10 of the molar value.

Task item: Provide value of pKi for this record tested with Recombinant Rhinovirus 3C protease (RVP) serotype 16 (Human rhinovirus 16): CCOC(=O)/C=C/[C@H](CCC(N)=O)NC(=O)[C@H](Cc1ccccc1)NC(=O)[C@H](CC(C)C)NC(=O)c1ccc(Oc2ccccc2)cc1 [Compound 104]
Reply: 5.82

###

tested on: HI-HeLa cells; assay: Cytotoxicity in mock-infected HI-HeLa cells (antirhinoviral assay, XTT); format: cell-based
Assay endpoint: CC50

CCOC(=O)/C=C/[C@H](CCC(N)=O)NC(=O)[C@H](Cc1ccccc1)NC(=O)[C@H](CC(C)C)NC(=O)C(C)C [Compound 117]    > 320 µM
CC(C)C[C@H](NC(=O)OCc1ccccc1)C(=O)N[C@@H](Cc1ccccc1)C(=O)N[C@H](/C=C/C(=O)O)CCC(N)=O [Compound 15]    > 100 µM
CCOC(=O)C=CC(CCC(N)=O)NC(=O)C(Cc1ccccc1)NC(=O)C(NC(=O)OCc1ccccc1)C(C)CC (stereo not drawn) [Compound 172]    > 100 µM

Each compound below has a recorded value; state its CC50.
1. CCOC(=O)/C=C/[C@H](CCC(N)=O)NC(=O)[C@H](Cc1ccccc1)NC(=O)[C@@H](NC(=O)SC1CCCC1)C(C)(C)SC [Compound 178]
2. CCOC(=O)/C=C/[C@H](CCC(N)=O)NC(=O)[C@H](Cc1ccc(CCO)cc1)NC(=O)[C@H](CC(C)C)NC(=O)OCc1ccccc1 [Compound 139]
3. CCOC(=O)/C=C/[C@H](CNC(C)=O)NC(=O)[C@H](Cc1ccccc1)NC(=O)[C@H](CC(C)C)NC(=O)OCc1ccccc1 [Compound 4]

Reply:
1. > 100 µM
2. > 320 µM
3. > 320 µM

###

Give CC50 at 2 days for every item shown.
test: Cytotoxicity in mock-infected HI-HeLa cells (antirhinoviral assay, XTT); format: cell-based; details: human; mock-infected HI-HeLa cells; two days; XTT; read-out: CC50

Solved entries (count: 2):
CC(C)C[C@H](NC(=O)OCc1ccccc1)C(=O)N[C@@H](Cc1ccccc1)C(=O)N[C@H](/C=C/C(=O)n1ccc2ccccc21)CCC(N)=O [Compound 89]    29 µM
CCOC(=O)/C=C/[C@H](CCC(N)=O)NC(=O)[C@H](Cc1ccc(CO)cc1)NC(=O)[C@H](CC(C)C)NC(=O)OCc1ccccc1 [Compound 114]    > 320 µM

--- query ---
Task item: // CC50 at 2 days lookup, key: CC(C)CC(NC(=O)OCc1ccccc1)C(=O)NC(Cc1ccccc1)C(=O)NC(C=CCOc1ccc(C(F)(F)F)cc1)CCC(N)=O (stereo not drawn) [Compound 77]
Reply: > 320 µM

###

molecular target: Recombinant Rhinovirus 3C protease (RVP) serotype-14 (Human rhinovirus 14, UniProt P03303); construct: Recombinant Rhinovirus 3C proteases from serotypes 14, 16, 2 or 89; made in house; assay: Inhibition of Rhinovirus Protease (fluorescence resonance energy transfer assay), serotype 14; type: biochemical, human rhinovirus (HRV); details: RVP serotype-14; progress curves in enzyme start experiments
Sequence (P03303 1538-1719): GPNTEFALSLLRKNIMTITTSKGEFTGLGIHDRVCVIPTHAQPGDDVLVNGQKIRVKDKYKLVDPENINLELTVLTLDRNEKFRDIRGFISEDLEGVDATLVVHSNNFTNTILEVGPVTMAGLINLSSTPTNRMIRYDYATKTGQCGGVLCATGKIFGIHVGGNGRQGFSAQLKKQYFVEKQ
Give kobs/I for every item shown.

Solved entries (count: 5):
CC(C)C[C@H](NC(=O)OCc1ccccc1)C(=O)N[C@@H](Cc1ccccc1)C(=O)N[C@H](/C=C/c1ccno1)CCC(N)=O [Compound 150]    573 M⁻¹ s⁻¹
CCOC(=O)/C=C/[C@H](CCC(N)=O)NC(=O)[C@H](Cc1ccccc1)NC(=O)[C@H](CSc1ccccc1)NC(=O)SC1CCCC1 [Compound 173]    1,000,000 M-1 sec-1
CCOC(=O)/C=C/[C@H](CCC(N)=O)NC(=O)[C@H](Cc1ccc(F)cc1)NC(=O)[C@@H](NC(=O)SC1CCCC1)C(C)C [Compound 184]    59,900 M-1 sec-1
CC(C)C[C@H](NC(=O)OCc1ccccc1)C(=O)N[C@@H](Cc1ccccc1)C(=O)N[C@H](/C=C/C(=O)OCC1CCCC1)CCC(N)=O [Compound 19]    7,900 M-1 sec-1
CCOC(=O)/C=C/[C@H](CCC(N)=O)NC(=O)[C@H](Cc1ccc(OCC)cc1)NC(=O)[C@H](CC(C)C)NC(=O)OCc1ccccc1 [Compound 136]    4,210 M-1 sec-1

Task item: // kobs/I lookup, key: CCOC(=O)/C=C/[C@H](CCC(N)=O)NC(=O)[C@H](Cc1ccccc1)NC(=O)[C@@H](NC(=O)SCC)C(C)(C)C [Compound 167]
Reply: 165,400 M-1 sec-1

###

Give kobs/I for every item shown.
molecular target: Recombinant Rhinovirus 3C protease (RVP) serotype 16 (Human rhinovirus 16); construct: Recombinant Rhinovirus 3C proteases from serotypes 14, 16, 2 or 89; made in house; assay: Inhibition of Rhinovirus Protease (fluorescence resonance energy transfer assay), serotype 16; type: biochemical, human rhinovirus (HRV); details: RVP serotype 16; progress curves in enzyme start experiments

CCOC(=O)/C=C/[C@H](CCC(N)=O)NC(=O)[C@H](Cc1ccccc1)NC(=O)[C@H](CSCc1ccccc1)NC(=O)OCc1ccccc1    20,200 M-1 sec-1
CCOC(=O)/C=C/[C@H](CCC(N)=O)NC(=O)[C@H](Cc1ccccc1)NC(=O)[C@H](C[S+]([O-])Cc1ccccc1)NC(=O)OCc1ccccc1 (some centres unmarked)    7,700 M-1 sec-1

Each compound below has a recorded value; state its kobs/I.
1. CCOC(=O)/C=C/[C@H](CCC(N)=O)NC(=O)[C@H](Cc1ccccc1)NC(=O)[C@H](CO)NC(=O)OCc1ccccc1
2. CCOC(=O)/C=C/[C@H](CCC(N)=O)NC(=O)[C@H](CC1CCCCC1)NC(=O)[C@H](CC(C)C)NC(=O)OCc1ccccc1
3. CC(C)C[C@H](NC(=O)OCc1ccccc1)C(=O)N[C@@H](Cc1ccccc1)C(=O)N[C@H](/C=C/C(=O)N1CCCC1=O)CCC(N)=O
4. CC(C)C[C@H](NC(=O)OCc1ccccc1)C(=O)N[C@@H](Cc1ccccc1)C(=O)N[C@H](/C=C/C(=O)N1CCOC1=O)CCC(N)=O

Reply:
1: 7,700 M-1 sec-1; 2: 3,465 M-1 sec-1; 3: 25,000 M-1 sec-1; 4: 300,000 M-1 sec-1
